- method_summary: blocking HSF1-driven luciferase expression – cell-based, NIH3T3, luminescence, primary screen (AID 2098);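 further: luciferase reports HSF-1 transcriptional activity via heat shock element; 0% = median of DMSO wells and -100% = zero luminescence signal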
- conditions_used: NIH3T3-HGL HSE-luciferase, MG132-induced, luminescence 8 h; screened at 7.5 µM (by protocol)
The whole screen tested about 300,000 compounds, of which about 2,300 (0.77%) were called active.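 How the source made its calls: active means more than half of replicate wells show activity change below -50%, luminescence cut by over half; inconclusive means some wells, but at most half, below -50%; inactive means no replicate well below -50%.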 The full list was thinned out, with actives kept by preference.
Allowed answers: yes (1) (active), no (0) (inactive)

Recorded results for 4 compounds are shown here.
compound | class_label
Cc1ccc(CN2CCN(c3ccccc3Cl)CC2)o1 | no (0)
Cc1ccc(OCCNC(=O)CN2C(=O)NC3(CCCC3)C2=O)cc1 | no (0)
COc1ccc(OC)c(S(=O)(=O)N2CCCC(C(=O)N3CCC(C(N)=O)CC3)C2)c1 (configuration not stated) | no (0)
COc1ccc(/C=N/NC(=O)c2ccc3c(c2)OCCO3)c(OC)c1 | yes (1)

I would be grateful if you could indicate the recorded call for Cc1ccc(Cl)c(OCC(=O)N(C)CC(=O)Nc2ccc(N3CCOCC3)cc2)c1 .
no (0)

Please let me know the test result on file for O=[N+]([O-])c1cccc(C=NN=Cc2ccccc2O)c1 .
no (0)

What call does the record list for O=C(CN(c1cc(C(F)(F)F)ccc1Cl)S(=O)(=O)c1ccccc1)NCc1cccnc1 ?
no (0)

Please share the test call associated with COC(=O)c1ccc(NS(=O)(=O)c2cc3c4c(c2)C(C)C(=O)N4CCC3)cc1 (configuration not stated) .
no (0)

Answer briefly: the call reported for CC(=O)N/C(=C\c1ccccc1)C(=O)OC(C)C(=O)N(C)c1ccccc1 (configuration not stated) in this assay.
no (0)
